Provide the reported TGI of each item.
Test system: SK-MEL-2 melanoma
ASSAY EXPLANATION: NCI tumour cell line growth inhibition, 48 h
Hi! Could you send only the number? It should be in µM, unit omitted.

// TGI value for CCOC(=O)c1ccc2c(c1)[n+](=O)c(C(=O)C1CCCS1)c(C(F)(F)F)n2[O-] (centres undefined) : 3.16

Value of measured TGI for the entry `CCOC(=O)/C(=C\c1ccccc1)C(=O)CCN1CCOCC1` : 42.4

What the record says about `CCC1=C(C)C(=O)N/C1=C\c1[nH]c(C)c([C@H](C)CCN)c1C` : TGI is 35.1

Input COC(=O)[C@](NC(=O)OCc1ccccc1)([C@@H](C)S(=O)c1ccc(C)cc1)C(F)(F)F (some centres undefined) . Output TGI: 48.9

Given item COC(=O)C1C(O)C(C)C(=O)C(C)/C=C\C=C(C)C(=O)Nc2c(C)c(OC(C)=O)c3c(c2O)C(=O)C(C)=C2OCOC(=C23)C(C)=CC(C)(O)C(O)C(C)C1O (centres undefined) , the value recorded as its TGI is 86.1

Please fill in: TGI reported for `Cn1c(=O)n(CCCO)c(=O)c2c1nc(Oc1cccc(OC(F)(F)F)c1)n2Cc1ccc(Cl)cc1` = 32.6

Just so you know, measured TGI for CCN1C(=O)N(C)C(O)c2c1nc1ccccn1c2=O (centres undefined) came out at 62.8

Given item O=C1C(Cl)C(c2cc(Br)cc(Br)c2O)N1n1cnc2ccccc2c1=O (centres undefined) , the value recorded as its TGI is 46.7

What the record says about `COc1ncc(-c2ccc3nccc(C#CCCCCC(=O)O)c3c2)cc1NS(=O)(=O)c1ccc(F)cc1F` : TGI is 15.2

Kindly note the recorded TGI for `COc1cc(/C=C/C(=O)c2ccc(Nc3nc(Nc4ccc(F)cc4)nc(Nc4ccc(Cl)cc4)n3)cc2)cc(OC)c1OC` , which is 27

Lab note: `C[n+]1c2ccccc2n2c3ccccc3c(NCCCN3CCOCC3)c(C#N)c21` gave TGI of 6.42

###

Give GI50 for every item shown.
Tested on: IGROV1 ovarian
ASSAY EXPLANATION: NCI tumour cell line growth inhibition, 48 h

// recorded GI50 for C=C1CC2(OC1=O)C(=O)N(C)c1ccc(I)cc12 (stereo not given) : 1230 nM

Measured GI50 of `Cn1c(=O)n(CCCO)c(=O)c2c1nc(Oc1cccc(OC(F)(F)F)c1)n2Cc1ccc(Cl)cc1` : 14200 nM

GI50 reading for `COc1cc(CN[C@H]2CCc3cc(OC)c(OC)c(OC)c3-c3ccc(SC)c(=O)cc32)cc(OC)c1` : 69 nM

GI50 reported for this compound `COc1cc(C(=O)c2c(-c3ccccc3)oc3c(OC)cccc23)cc(OC)c1O` : 654 nM

So for `CCOC(=O)/C=C/C1=C(c2ccsc2)c2ccc(OC)cc2CC1` , the logged GI50 turned out to be 6260 nM

###

Tested on: UACC-62 melanoma
ASSAY EXPLANATION: NCI tumour cell line growth inhibition, 48 h; in the data active = GI50 below about 0.43 µM; inactive = the rest
Just give me one of these, please: true (1) for active, false (0) for inactive

Kindly provide the recorded test outcome for the following compound: CCOC(=O)c1ccc2c(c1)[n+](=O)c(C(=O)C1CCCS1)c(C(F)(F)F)n2[O-] (stereo unspecified)
false (0)

Answer briefly: the call reported for `Cn1c(=O)n(CCCO)c(=O)c2c1nc(Oc1cccc(OC(F)(F)F)c1)n2Cc1ccc(Cl)cc1` in this assay.
false (0)

// return assay outcome for Cc1c([C@H](C(Cl)Cl)[C@H](O)[C@H]2C[C@H](C)C(=O)O2)ccc2c1C(=O)[C@H]1[C@H]2C[C@@H](Br)[C@@]23O[C@@H](CO[C@H]2O)CC13C (stereo partly specified)
true (1)

Lab log entry: `N#Cc1c(-c2ccc(Cl)cc2)csc1NC(=O)Nc1ccc(Cl)c(C(F)(F)F)c1` — outcome as called in the assay?
true (1)

I would be grateful if you could indicate the recorded call for `C[CH2][Sn]([CH2]C)([O]C(=O)c1cccc(OC)c1)[O][Sn]([CH2]C)([CH2]C)[O]C(=O)c1cccc(OC)c1` .
false (0)

Test call for this compound, please: `COc1cc(C(=O)c2c(-c3ccccc3)oc3c(OC)cccc23)cc(OC)c1O`
false (0)
